Task for the reader: assign each of the following compounds its reported log10 IC50.
- assay_system: SARS-CoV-2 nsp13 helicase (Severe acute respiratory syndrome coronavirus 2, UniProt P0DTD1)
- assay_details: biochemical
- Format: biochemical
- test_context: IC50 + 0.02% Tween-20
# values: log10(IC50), units µM

**Query** Return the recorded log10 IC50 value; entry: Cc1cc2c(C(C)C)c(O)c(O)c(C=O)c2c(O)c1-c1c(C)cc2c(C(C)C)c(O)c(O)c(C=O)c2c1O
**Result** 1.48

**Query** Could you please provide reported log10 IC50 for Cc1ccc(F)c(NC(=O)Nc2ccc(-c3cccc4[nH]nc(N)c34)cc2)c1 ? Thanks!
**Result** 2.36

**Query** Look up and report measured log10 IC50 for this entry: COc1ccc(-c2ccc3cc(C(=O)O)ccc3c2)cc1C12CC3CC(CC(C3)C1)C2
**Result** 1.00

**Query** Name the recorded log10 IC50 of the compound listed here: CCCCC/C=C\C/C=C\CCCCCCCC(=O)O
**Result** 1.58

**Query** Determine from records and report log10 IC50 for CC/C=C\C/C=C\C/C=C\C/C=C\C/C=C\CCCC(=O)O
**Result** 1.84

**Query** Please list log10 IC50 recorded for the compound Cc1cc(OCCCS(C)(=O)=O)cc(C)c1-c1cccc(COc2ccc3c(c2)OC[C@H]3CC(=O)O)c1
**Result** 1.86

**Query** Return log10 IC50 (reported value) for this compound: CC(C)(Sc1ccc(CCN(CCCCC2CCCCC2)C(=O)NC2CCCCC2)cc1)C(=O)O
**Result** 1.43
